TARGET_SYSTEM: Monoglyceride lipase (Homo sapiens)
PROCEDURE_DETAILS: Inhibition of human MGL
pIC50: −log10 of the molar value.
READOUT_LABEL: pIC50

a = CCCCC/C=C\C/C=C\C/C=C\C/C=C\CCCC(=O)C(F)(F)F [ARACHIDONYL TRIFLUOROMETHYLKETONE]
b = CCCCC/C=C\C/C=C\C/C=C\C/C=C\CCCCN1C(=O)C=CC1=O
Query block: I'm curious, which of these has a smaller pIC50 number: a or b ? Pick one and reply with its label.
Result block: a

* * *

TARGET_SYSTEM: Monoglyceride lipase (Homo sapiens, UniProt Q99685)
Sequence (Q99685 whole entry): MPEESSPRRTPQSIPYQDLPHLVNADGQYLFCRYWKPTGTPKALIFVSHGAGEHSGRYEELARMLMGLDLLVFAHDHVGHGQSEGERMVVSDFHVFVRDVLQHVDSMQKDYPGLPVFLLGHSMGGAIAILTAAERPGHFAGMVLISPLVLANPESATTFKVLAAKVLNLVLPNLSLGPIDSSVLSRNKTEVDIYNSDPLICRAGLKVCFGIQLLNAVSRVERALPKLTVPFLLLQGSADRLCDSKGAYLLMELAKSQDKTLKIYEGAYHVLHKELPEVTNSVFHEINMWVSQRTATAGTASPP
PROCEDURE_DETAILS: Displacement of [3H]2-OG from human MGL by liquid scintillation counting
READOUT_LABEL: IC50 (µM)

COMPOUND	IC50 (µM)
CC(C)c1ccc(N2C(=O)C=CC2=O)cc1	2.88
O=C1C=CC(=O)N1c1ccccc1I	5.01
O=C1C=CC(=O)N1c1ccc(O)cc1	12.9

a = CCN1C(=O)C=CC1=O [N-ETHYLMALEIMIDE]
b = O=C1C=CC(=O)N1Cc1ccc(-c2ccccc2)cc1
c = CCCc1ccc(N2C(=O)C=CC2=O)cc1
d = O=C1C=CC(=O)N1c1ccccc1-c1ccccc1
e = CCCCCCCCCN1C(=O)C=CC1=O
Query block: Would you mind ranking these compounds by ascending IC50? Please express your ranking as an ordered list of the labels.
Result block: b, d, e, c, a
